Tested on: NCI-H23
Test Summary: relative viability (nuclei count vs DMSO), 5 days (fraction); higher = more cells survive
Assay Context: first compound 0.04 µM
Catalogue of relative viability values
Please give the numeric answer without any surrounding text.

| Compound | relative viability |
| --- | --- |
| Cc1sc2c(c1C)C(c1ccc(Cl)cc1)=N[C@@H](CC(=O)OC(C)(C)C)c1nnc(C)n1-2 [JQ1] + O=C(c1cc(Cc2n[nH]c(=O)c3ccccc23)ccc1F)N1CCN(C(=O)C2CC2)CC1 [Olaparib] (partner 8 µM) | 0.329 |
| Cc1sc2c(c1C)C(c1ccc(Cl)cc1)=N[C@@H](CC(=O)OC(C)(C)C)c1nnc(C)n1-2 [JQ1] + CC(C)C[C@H](NC(=O)[C@H](Cc1ccccc1)NC(=O)c1cnccn1)B(O)O [Bortezomib] (partner 0.002 µM) | 1.07 |
| Cc1sc2c(c1C)C(c1ccc(Cl)cc1)=N[C@@H](CC(=O)OC(C)(C)C)c1nnc(C)n1-2 [JQ1] + CC(=O)Nc1cccc(-n2c(=O)n(C3CC3)c(=O)c3c(Nc4ccc(I)cc4F)n(C)c(=O)c(C)c32)c1 [Trametinib] (partner 0.02 µM) | 0.348 |
| Cc1sc2c(c1C)C(c1ccc(Cl)cc1)=N[C@@H](CC(=O)OC(C)(C)C)c1nnc(C)n1-2 [JQ1] + NC(=O)Nc1cc(-c2cccc(F)c2)sc1C(=O)N[C@H]1CCCNC1 [AZD7762] (partner 0.2 µM) | 0.208 |
| Cc1sc2c(c1C)C(c1ccc(Cl)cc1)=N[C@@H](CC(=O)OC(C)(C)C)c1nnc(C)n1-2 [JQ1] + C[C@]1(O)C[C@@H](c2nc(-c3ccc4ccc(-c5ccccc5)nc4c3)c3c(N)nccn32)C1 [Linsitinib] (partner 1 µM) | 0.513 |

Now consider the entry below.
Ask: What measured relative viability goes with Cc1sc2c(c1C)C(c1ccc(Cl)cc1)=N[C@@H](CC(=O)OC(C)(C)C)c1nnc(C)n1-2 [JQ1] + N=C(N)NC(=N)NCCc1ccccc1 [Phenformin] (partner 250 µM) ?
Reply: 0.749

----------
Tested on: NCI-H322M
Test Summary: relative viability (nuclei count vs DMSO), 5 days (fraction); higher = more cells survive
Assay Context: first compound 0.002 µM
Here, each record is paired with measured relative viability data.
Number, no unit, nothing else.

| Molecule | relative viability |
| --- | --- |
| CC(=O)O[C@@]12CO[C@@H]1C[C@H](O)[C@@]1(C)C(=O)[C@H](O)C3=C(C)[C@@H](OC(=O)[C@H](O)[C@@H](NC(=O)OC(C)(C)C)c4ccccc4)C[C@@](O)([C@@H](OC(=O)c4ccccc4)[C@H]21)C3(C)C [Docetaxel] + O=C(c1cc(Cc2n[nH]c(=O)c3ccccc23)ccc1F)N1CCN(C(=O)C2CC2)CC1 [Olaparib] (partner 8 µM) | 0.721 |
| CC(=O)O[C@@]12CO[C@@H]1C[C@H](O)[C@@]1(C)C(=O)[C@H](O)C3=C(C)[C@@H](OC(=O)[C@H](O)[C@@H](NC(=O)OC(C)(C)C)c4ccccc4)C[C@@](O)([C@@H](OC(=O)c4ccccc4)[C@H]21)C3(C)C [Docetaxel] + Cc1nc(Nc2ncc(C(=O)Nc3c(C)cccc3Cl)s2)cc(N2CCN(CCO)CC2)n1 [Dasatinib] (partner 0.075 µM) | 0.372 |

Ask: // relative viability lookup, key: CC(=O)O[C@@]12CO[C@@H]1C[C@H](O)[C@@]1(C)C(=O)[C@H](O)C3=C(C)[C@@H](OC(=O)[C@H](O)[C@@H](NC(=O)OC(C)(C)C)c4ccccc4)C[C@@](O)([C@@H](OC(=O)c4ccccc4)[C@H]21)C3(C)C [Docetaxel] + NC(=O)Nc1cc(-c2cccc(F)c2)sc1C(=O)N[C@H]1CCCNC1 [AZD7762] (partner 0.2 µM)
Reply: 0.451
